# key: entry, value: pIC50
- EXPERIMENTAL SYSTEM: angiotensin II AT1 receptor
- MEASUREMENT PROTOCOL: Assay A: Angiotensin II binding activity, rat uterine membrane preparation, 125I-AII displacement
# log scale: pIC50 equals minus log10 of the concentration in mol/L

Below are worked cases with known answers.
>  <CHEMICAL STRUCTURE>
CCCCc1cn(CCCC)c(=O)n1Cc1ccc(-c2ccccc2-c2nnn[nH]2)cn1

>  <pIC50>
8.30

$$$$
>  <CHEMICAL STRUCTURE>
CCCCc1nc(Cl)nn1Cc1ccc(-c2ccccc2C(=O)O)cc1

>  <pIC50>
8.40

$$$$
>  <CHEMICAL STRUCTURE>
CCCCc1nc(CCCC)n(Cc2ccc(-c3ccccc3C(=O)NN)cc2)n1

>  <pIC50>
7.80

$$$$
>  <CHEMICAL STRUCTURE>
CCCCc1nc(C=O)nn1Cc1ccc(-c2ccccc2-c2nnn[nH]2)cc1

>  <pIC50>
5.66

$$$$
>  <CHEMICAL STRUCTURE>
CCCCc1nc(CCCO)n(Cc2ccc(-c3ccccc3-c3nnn[nH]3)cc2)n1

>  <pIC50>
5.64

$$$$
>  <CHEMICAL STRUCTURE>
CCCCc1nc(CCc2ccccc2)n(Cc2ccc(-c3ccccc3-c3nnn[nH]3)nc2)n1

>  <pIC50>
6.96

$$$$
>  <CHEMICAL STRUCTURE>
CCCCCn1cc(CCCC)n(Cc2ccc(-c3ccccc3-c3nnn[nH]3)nc2)c1=O

>  <pIC50>
8.44

$$$$
>  <CHEMICAL STRUCTURE>
CCCCc1nc(CCCC)n(Cc2ccc(-c3ccccc3-c3nnn[nH]3)cc2)n1

>  <pIC50>
8.14

$$$$
>  <CHEMICAL STRUCTURE>
CCCCc1nc(C(F)(F)CCC)nn1Cc1ccc(-c2ccccc2-c2nnn[nH]2)cc1

>  <pIC50>
7.06

$$$$
>  <CHEMICAL STRUCTURE>
CCCCc1nc(C(=O)NC)n(Cc2ccc(-c3ccccc3-c3nnn[nH]3)nc2)n1

>  <pIC50>
8.01

$$$$

Which pIC50 is reported for this compound? CCCc1nc(CCC)n(Cc2ccc(-c3ccccc3-c3nnn[nH]3)cc2)n1 6.37

// lookup pIC50 for CCCCc1nc(CC)nn1Cc1ccc(-c2ccccc2-c2nnn[nH]2)cc1 7.27

Reported pIC50, compound CCCCc1cn(CCc2ccccc2)c(=O)n1Cc1ccc(-c2ccccc2-c2nnn[nH]2)cc1 : ____ 10.06

Looking for the measured pIC50 of CCCCc1ncnn1Cc1ccc(-c2ccccc2C(=O)O)cc1 , can you help? 6.80

So what does the record say about pIC50 for CCCCc1cn(C(C)(C)C)c(=O)n1Cc1ccc(-c2ccccc2-c2nnn[nH]2)nc1 ? 7.64

Param item = CCCCCCn1nc(CCCC)n(Cc2ccc(-c3ccccc3-c3nn[nH]n3)cc2)c1=O ; retrieve measured pIC50. 7.68

Consider the compound CCCCc1nc(CC(OCC)OCC)n(Cc2ccc(-c3ccccc3-c3nnn[nH]3)cc2)n1 and give its measured pIC50. 6.17

====

Recorded measurements of Kb, one per entry
- Tested on: rabbit aortic rings
- MEASUREMENT PROTOCOL: Assay B: In vitro vascular smooth muscle response for AII (antagonist activity, pA2)
- Format: cell-based
- PROTOCOL CONDITIONS: Oryctolagus cuniculus, two values in a cell = two determinations
Note: unit nM is implicit; provide only the numeric part.

Worked examples, 3 compounds total:
>  <COMPOUND>
CCCn1nc(C(F)(F)CC)nc1Cc1ccc(-c2ccccc2-c2nnn[nH]2)nc1 [Compound 178]

>  <OBSERVED VALUE>
28.8

$$$$
>  <COMPOUND>
CCCCc1cn(CCCC)c(=O)n1Cc1ccc(-c2ncccc2-c2nnn[nH]2)cc1 [Compound 235]

>  <OBSERVED VALUE>
72.4

$$$$
>  <COMPOUND>
CCCCn1nc(C2OCCCO2)nc1Cc1ccc(-c2ccccc2-c2nnn[nH]2)nc1 [Compound 191]

>  <OBSERVED VALUE>
17.8

$$$$

Query: Kb; subject: CCCCc1nn(CC(=O)OCC)c(=O)n1Cc1ccc(-c2ccccc2-c2nn[nH]n2)cc1 [Compound 97] 20

====

- System: rabbit aortic rings
- MEASUREMENT PROTOCOL: Assay B: In vitro vascular smooth muscle response for AII (antagonist activity, pA2)
- Assay type: cell-based
- PROTOCOL CONDITIONS: Oryctolagus cuniculus, two values in a cell = two determinations
MEASURED ATTRIBUTE: Kb (nM)
Response body: numeric value in nM, unit text excluded.

Illustrative cases are given below, each with its answer.
>  <MOLECULE>
CCCCc1nc(CCCC)n(Cc2ccc(-c3ccccc3-c3nnn[nH]3)cc2)n1

>  <UNITS OF MEASURE>
nM

>  <Kb>
1.45

$$$$
>  <MOLECULE>
CCCCCCCCc1nc(CCCC)nn1Cc1ccc(-c2ccccc2-c2nnn[nH]2)cc1

>  <UNITS OF MEASURE>
nM

>  <Kb>
13.2

$$$$
>  <MOLECULE>
CCCCc1nc(CCCC)n(Cc2ccc(-n3c(Br)ccc3-c3nnn[nH]3)cc2)n1

>  <UNITS OF MEASURE>
nM

>  <Kb>
34.7

$$$$

We next turn to a different molecule, shown below.
Bench note: what Kb did C[C@]12C=CC(=O)C=C1[C@@H]1CC1[C@H]1[C@@H]3CC[C@@]4(CCC(=O)O4)[C@@]3(C)CC3O[C@]312 (stereo partly shown) show? 282

====

- EXPERIMENTAL SYSTEM: angiotensin II AT1 receptor
- MEASUREMENT PROTOCOL: Assay A: Angiotensin II binding activity, rat uterine membrane preparation, 125I-AII displacement
Recorded log10 IC50, one value per entry.
Each number you see is log10 of IC50, and the unit inside the log is nM.

Reference set (4 entries):
>  <COMPOUND>
CCCCc1cn(CCc2ccccc2)c(=O)n1Cc1ccc(-c2ccccc2-c2nnn[nH]2)nc1

>  <EXPERIMENTAL SYSTEM>
angiotensin II AT1 receptor

>  <log10 IC50>
0.68

$$$$
>  <COMPOUND>
CCCCc1cn(-c2c(C)cccc2C)c(=O)n1Cc1ccc(-c2ccccc2-c2nnn[nH]2)nc1

>  <EXPERIMENTAL SYSTEM>
angiotensin II AT1 receptor

>  <log10 IC50>
1.92

$$$$
>  <COMPOUND>
CCOC(=O)[C@@H]1CC2=CC(=O)CC[C@]2(C)C23O[C@@H]2C[C@@]2(C)[C@@H](CC[C@@]24CCC(=O)O4)[C@H]13 (stereo partly shown)

>  <EXPERIMENTAL SYSTEM>
angiotensin II AT1 receptor

>  <log10 IC50>
0.69

$$$$
>  <COMPOUND>
CCCCc1nc(-c2ccccc2OC)nn1Cc1ccc(-c2ccccc2-c2nnn[nH]2)nc1

>  <EXPERIMENTAL SYSTEM>
angiotensin II AT1 receptor

>  <log10 IC50>
1.52

$$$$

Could you share which log10 IC50 value was measured for CCCCn1nc(C2OCC(C)(C)CO2)nc1Cc1ccc(-c2ccccc2-c2nnn[nH]2)nc1 ? 2.15

What measured log10 IC50 goes with CCCCc1nc(C)n(Cc2ccc(-c3ccccc3-c3nnn[nH]3)cc2)n1 ? 1.20

What does the record list as log10 IC50 for CCCCc1cn(-c2ccccc2CC)c(=O)n1Cc1ccc(-c2ccccc2-c2nnn[nH]2)nc1 ? 0.83

Any idea what log10 IC50 was measured for CCCCc1nn(CCCCC(=O)O)c(=O)n1Cc1ccc(-c2ccccc2-c2nn[nH]n2)cc1 ? 2.60

Record request: log10 IC50 value, item CCCCc1nc(C23CC4CC(CC(C4)C2)C3)nn1Cc1ccc(-c2ccccc2-c2nnn[nH]2)cc1 3.49

What value of log10 IC50 has been reported for the following compound? CCCn1nc(C(F)F)nc1Cc1ccc(-c2ccccc2-c2nnn[nH]2)nc1 1.95

Entry CCCCn1nc(C=O)nc1Cc1ccc(-c2ccccc2-c2nnn[nH]2)nc1 : reported log10 IC50 = ? 1.00

Would you kindly share the measured log10 IC50 for CCCCc1cn(-c2c(C)cc(C(C)(C)C)cc2C)c(=O)n1Cc1ccc(-c2ccccc2-c2nnn[nH]2)nc1 ? 2.18

====

- System: rabbit aortic rings
- MEASUREMENT PROTOCOL: Assay B: In vitro vascular smooth muscle response for AII (antagonist activity, pA2)
- Format: cell-based
- PROTOCOL CONDITIONS: Oryctolagus cuniculus, two values in a cell = two determinations
Listed next: entries and their corresponding Kb.
Give just the numeric value; nM need not be written.

Some entries whose results are on file:
>  <COMPOUND>
CCCCc1nn(CCC2CCCCC2)c(=O)n1Cc1ccc(-c2ccccc2-c2nn[nH]n2)cc1

>  <UNITS OF MEASURE>
nM

>  <Kb>
0.398

$$$$
>  <COMPOUND>
CCCCc1nc(Cl)c(Cl)n1Cc1ccc(-n2cccc2C(=O)O)cc1

>  <UNITS OF MEASURE>
nM

>  <Kb>
5.89

$$$$
>  <COMPOUND>
CCCCn1nc(C(F)(F)CCC)nc1Cc1ccc(-c2ccccc2-c2nnn[nH]2)cc1

>  <UNITS OF MEASURE>
nM

>  <Kb>
9.55

$$$$
>  <COMPOUND>
CCCCc1nc(CC)nn1Cc1ccc(-c2ccccc2C(=O)O)cc1

>  <UNITS OF MEASURE>
nM

>  <Kb>
15.8

$$$$
>  <COMPOUND>
CCCCc1nc(-c2ccccc2OC)nn1Cc1ccc(-c2ccccc2-c2nnn[nH]2)nc1

>  <UNITS OF MEASURE>
nM

>  <Kb>
1.95

$$$$

What value of Kb has been reported for the following compound? CCCCc1nn(C(Cc2ccccc2)C(=O)c2ccccc2)c(=O)n1Cc1ccc(-c2ccccc2-c2nn[nH]n2)cc1 (centres unmarked) 251

For CCCCc1nc(C(F)(F)CCC)n(Cc2ccc(-c3ccccc3-c3nnn[nH]3)cc2)n1 , what is its reported Kb? 251

# input compound: CCCCc1nn(CC(=O)c2cc(OC)ccc2OC)c(=O)n1Cc1ccc(-c2ccccc2-c2nn[nH]n2)cc1 ; wanted: its Kb 5.01
